- System: RPMI-8226 leukemia
- assay_notes: NCI-60 one-dose screen, 48 h (100 = growth as untreated, 0 = no growth, -100 = all killed)
- experimental_parameters: 10 µM
About 83,000 compounds went through this panel and 20% of them were active in at least one assay; those are over-represented in the sample as a whole.
parameter_measured: growth (%)

compound: COc1ccccc1[C@H]1C(C(=O)c2ccc(Cl)cc2)C2(N[C@@H]1c1ccccc1)C(=O)Nc1ccccc12 (stereo not given in full)
study_target: RPMI-8226 leukemia
parameter_measured: growth
result_units: %
observed_measurement: 5.12
--
compound: Nc1cc(-c2cccc(C(=O)NCc3ccc4c(c3)OCO4)c2)ccn1
study_target: RPMI-8226 leukemia
parameter_measured: growth
result_units: %
observed_measurement: 80.6
--
compound: COc1ccc(C(=O)Nc2sc3c(c2C#N)CCC(=O)C3)cc1C(F)(F)F
study_target: RPMI-8226 leukemia
parameter_measured: growth
result_units: %
observed_measurement: 4.37
--
compound: CN1C/C(=C\c2ccc(O)cc2O)c2[o+]c3cc(O)ccc3cc2C1
study_target: RPMI-8226 leukemia
parameter_measured: growth
result_units: %
observed_measurement: 33
--
compound: COc1cccc(/C=N/NC(=O)c2ccc3nc(-c4ccc(Cl)cc4)[nH]c3c2)c1O
study_target: RPMI-8226 leukemia
parameter_measured: growth
result_units: %
observed_measurement: -50.5

* * *

- Test system: HS 578T breast
- assay_notes: NCI-60 one-dose screen, 48 h
- experimental_parameters: 10 µM
Compounds without any hit were thinned out: in the full panel of roughly 83,000, 20% have a hit. Active and inactive are the calls of the source. How the source made its calls: active means growth percent below 10; inactive means the rest.
Outcomes: active, inactive

molecule: O=C(Cn1nc(-c2ccccc2)ccc1=O)NN1C(=O)c2ccccc2C1=O
assigned_label: inactive
//
molecule: O=C(N/C(=C1/OCCN1Cc1ccccc1)[P+](c1ccccc1)(c1ccccc1)c1ccccc1)c1ccccc1
assigned_label: active
//
molecule: COc1cc(C2CC(c3ccc(C)cc3)=Nc3c(N)nc(N)nc3N2)ccc1Oc1nc(Nc2ccc(F)cc2)nc(N(C)C)n1 (centres undefined)
assigned_label: inactive
//
molecule: COc1ccc(-c2ccc(SCC(=O)Nc3ccc(C#N)cc3)nn2)cc1
assigned_label: inactive
//
molecule: CCOP(=O)(OCC)O[C@H]1CCC(=O)[C@@H]2[C@H]1[C@H]1C[C@@H]3[C@@]4(C)CCCC(C)(C(=O)OC)[C@@H]4CC[C@@]23C=C1C(C)C (some centres undefined)
assigned_label: inactive
//
molecule: Cc1ccc(CNC(=O)Cc2ccc3c(c2)CN(C2CCC(=O)NC2=O)C3=O)cc1 (centres undefined)
assigned_label: active
//
molecule: O/N=C(\CSc1nnc(-c2c[nH]c3ccccc23)n1-c1ccccc1)c1ccc(Cl)cc1
assigned_label: active
//
molecule: O=C(c1ccc(O)cc1)C1[C@H](c2ccc(Br)cc2)[C@@H](c2ccccc2)NC12C(=O)Nc1ccccc12 (some centres undefined)
assigned_label: inactive
//
molecule: O=C(CNc1nc(-c2ccccc2)cs1)Nc1ccc(Cl)cc1
assigned_label: active

* * *

- Tested on: OVCAR-8 ovarian
- assay_notes: NCI-60 one-dose screen, 48 h (100 = growth as untreated, 0 = no growth, -100 = all killed)
- experimental_parameters: 10 µM
This is part of a sample that, as a whole, favours compounds with a hit. Of some 83,000 tested, about 20% had one in any assay. Activity calls are given as the source filed them. How the source made its calls: active means growth percent below 10; inactive means the rest.

molecule_smiles: Cc1ccc(C(=O)N/C(=C2/OCCN2C)[P+](c2ccccc2)(c2ccccc2)c2ccccc2)cc1
growth: 80.5% (inactive)
--
molecule_smiles: COc1cccc(-c2nn(-c3ccccc3)cc2-c2ccnc(NCCCNC(=O)Nc3ccc(F)cc3)c2)c1
growth: 11.1% (inactive)
--
molecule_smiles: CC1(C)CC[C@]2(C(=O)O)CC[C@]3(C)C(=CC[C@@H]4[C@@]5(C)C/C(=C/c6ccncc6)[C@H](O)C(C)(C)[C@@H]5CC[C@]43C)[C@@H]2C1
growth: 44.5% (inactive)
--
molecule_smiles: CCCCCCCCCCCCCCCCCCCC(=O)NCCc1c[nH]c2ccc(O)cc12
growth: 102% (inactive)
--
molecule_smiles: Nc1n[nH]c2cccc(C#Cc3cccc(NC(=O)Nc4cc(C(F)(F)F)cc(C(F)(F)F)c4)c3)c12
growth: -5.59% (active)
--
molecule_smiles: CN1CCN(c2ccc(Nc3nc(NCCNC(=O)c4ccc(C(F)(F)F)cc4)c4sccc4n3)cc2)CC1
growth: 21% (inactive)
--
molecule_smiles: Cc1ccc(-c2ccc(SCC(=O)Nc3ccc(Cl)c(C(F)(F)F)c3)nn2)cc1
growth: 1.56% (active)
--
molecule_smiles: N#Cc1c(NC(=O)c2ccc(C(F)(F)F)cc2)sc2c1CCC(=O)C2
growth: -32.3% (active)
